AC50 listing for selected compounds.
- test_system: Delta-type opioid receptor (Homo sapiens); also: assay procedure not described here
- Sequence (P41143 whole entry): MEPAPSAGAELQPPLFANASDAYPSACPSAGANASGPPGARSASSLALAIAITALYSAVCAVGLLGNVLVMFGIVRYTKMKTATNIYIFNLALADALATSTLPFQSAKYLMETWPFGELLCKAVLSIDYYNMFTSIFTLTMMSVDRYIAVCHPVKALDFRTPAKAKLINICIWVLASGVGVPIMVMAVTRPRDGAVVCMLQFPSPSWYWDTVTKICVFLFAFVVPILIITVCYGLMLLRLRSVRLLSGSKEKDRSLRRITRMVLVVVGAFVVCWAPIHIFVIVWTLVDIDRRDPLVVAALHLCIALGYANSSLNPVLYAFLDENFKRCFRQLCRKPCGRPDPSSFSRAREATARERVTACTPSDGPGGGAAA

Solved entries (count: 4):
compound	metric	reading
Oc1c(I)cc(Cl)c2cccnc12	AC50	> 30 µM
Nc1ccn([C@@H]2O[C@H](CO)[C@@H](O)C2(F)F)c(=O)n1	AC50	> 30 µM
CCCCCCOC(=O)CCC(=O)CN [HEXAMINOLEVULINATE]	AC50	> 30 µM
CN1c2ccccc2C(NCCCCCCC(=O)O)c2ccc(Cl)cc2S1(=O)=O (stereo not given)	AC50	28 µM

Attention now shifts to the item below.
Query :: // lookup AC50 | system=Delta-type opioid receptor (Homo sapiens) | key= CC(=O)OCC(CCn1cnc2cnc(N)nc21)COC(C)=O; also: assay procedure not described here
Result :: > 30 µM

The reported measurements were obtained from ChEMBL document CHEMBL5291721.
